# study-system: T1, IL10Rα/IL2Rγ receptor (human) (UniProt Q13651)
# T1 sequence (looked up) 1: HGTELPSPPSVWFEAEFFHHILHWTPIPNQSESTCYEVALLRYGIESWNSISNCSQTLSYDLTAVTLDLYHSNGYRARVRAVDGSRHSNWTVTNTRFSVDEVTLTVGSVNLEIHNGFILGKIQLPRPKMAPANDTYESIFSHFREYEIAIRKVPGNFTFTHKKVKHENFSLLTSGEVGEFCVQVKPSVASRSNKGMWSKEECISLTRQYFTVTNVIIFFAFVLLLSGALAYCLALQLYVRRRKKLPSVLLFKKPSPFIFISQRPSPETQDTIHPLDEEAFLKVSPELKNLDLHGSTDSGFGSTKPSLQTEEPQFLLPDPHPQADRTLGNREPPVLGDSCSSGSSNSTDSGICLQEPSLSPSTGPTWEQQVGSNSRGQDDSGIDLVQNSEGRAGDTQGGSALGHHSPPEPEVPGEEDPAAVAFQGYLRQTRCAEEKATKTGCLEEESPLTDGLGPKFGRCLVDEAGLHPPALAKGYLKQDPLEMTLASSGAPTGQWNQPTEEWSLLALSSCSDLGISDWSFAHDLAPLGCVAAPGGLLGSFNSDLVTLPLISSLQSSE
# T1 sequence (looked up) 2: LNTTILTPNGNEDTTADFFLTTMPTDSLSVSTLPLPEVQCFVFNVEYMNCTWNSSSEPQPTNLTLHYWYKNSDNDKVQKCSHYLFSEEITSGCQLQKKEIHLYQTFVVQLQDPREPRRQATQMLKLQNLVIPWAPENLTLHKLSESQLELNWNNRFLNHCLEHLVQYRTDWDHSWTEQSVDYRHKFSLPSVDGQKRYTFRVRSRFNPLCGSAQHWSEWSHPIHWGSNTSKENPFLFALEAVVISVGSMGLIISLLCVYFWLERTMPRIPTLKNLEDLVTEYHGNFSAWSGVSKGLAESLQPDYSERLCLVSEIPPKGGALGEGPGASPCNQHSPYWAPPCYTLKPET
# assay-name: cell-based or functional assay
endpoint: Granzyme B secretion, CD8 T cells, at 1 µM (pg/mL)
A number alone suffices; assume pg/mL.

Task: Give its Granzyme B secretion, CD8 T cells, at 1 µM value. Item: hIL10Ra_VHH14 - hIL2Rg_VHH19, No linker, tag his (bispecific antibody, not shown: small tags and cut ends) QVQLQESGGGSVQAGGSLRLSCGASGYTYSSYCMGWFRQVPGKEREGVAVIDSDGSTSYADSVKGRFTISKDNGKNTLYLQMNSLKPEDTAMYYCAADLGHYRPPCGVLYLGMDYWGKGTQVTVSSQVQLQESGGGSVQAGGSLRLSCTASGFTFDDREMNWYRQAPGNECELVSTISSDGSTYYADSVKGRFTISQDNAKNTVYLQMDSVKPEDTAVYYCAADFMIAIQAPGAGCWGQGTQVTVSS
Result: 56300

Task: What do we get for hIL10Ra_VHH14 - hIL2Rg_VHH19, linker GGGS, tag his (bispecific antibody, not shown: small tags and cut ends) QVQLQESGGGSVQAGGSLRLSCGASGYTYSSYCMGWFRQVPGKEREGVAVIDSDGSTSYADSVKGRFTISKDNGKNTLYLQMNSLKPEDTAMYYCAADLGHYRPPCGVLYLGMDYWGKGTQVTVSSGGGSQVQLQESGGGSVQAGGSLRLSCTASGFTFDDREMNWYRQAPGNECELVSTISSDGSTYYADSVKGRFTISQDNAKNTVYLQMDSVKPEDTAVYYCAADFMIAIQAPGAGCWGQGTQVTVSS ?
Result: 72700

Task: What do we get for hIL10Ra_VHH14 - hIL2Rg_VHH19, linker GGGS, tag Fc (bispecific antibody, not shown: a dimerising Fc or GST) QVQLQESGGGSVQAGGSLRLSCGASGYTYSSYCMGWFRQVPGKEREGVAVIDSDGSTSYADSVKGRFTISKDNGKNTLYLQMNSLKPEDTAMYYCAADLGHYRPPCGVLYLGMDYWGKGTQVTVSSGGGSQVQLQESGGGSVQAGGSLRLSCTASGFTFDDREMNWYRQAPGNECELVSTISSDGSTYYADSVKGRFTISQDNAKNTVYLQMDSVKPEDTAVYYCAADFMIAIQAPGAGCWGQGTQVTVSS ?
Result: 134000

Task: What do we get for hIL10Ra_VHH14 - hIL2Rg_VHH19, linker …, tag his (bispecific antibody, not shown: small tags and cut ends) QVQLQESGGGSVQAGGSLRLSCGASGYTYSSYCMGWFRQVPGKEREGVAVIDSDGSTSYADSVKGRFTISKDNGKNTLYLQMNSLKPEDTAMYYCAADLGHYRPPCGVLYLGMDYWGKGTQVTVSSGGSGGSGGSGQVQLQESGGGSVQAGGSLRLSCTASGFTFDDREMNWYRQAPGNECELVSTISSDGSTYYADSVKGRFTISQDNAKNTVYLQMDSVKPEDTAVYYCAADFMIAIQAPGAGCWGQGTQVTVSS ?
Result: 112000
